Target: T1, monkey RANKL (cynomolgus monkey, R & D Systems) (cynomolgus monkey, UniProt A0A7N9DBU4 140-317)
T1 construct: also called cynomolgus monkey RANKL
T1 sequence: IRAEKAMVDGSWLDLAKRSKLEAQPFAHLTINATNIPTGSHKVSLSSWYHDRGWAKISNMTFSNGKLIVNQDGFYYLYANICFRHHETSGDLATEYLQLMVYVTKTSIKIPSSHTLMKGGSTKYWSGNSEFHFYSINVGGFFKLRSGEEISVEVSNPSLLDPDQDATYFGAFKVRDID
Test: direct ELISA, monkey RANKL coated
REPORTED METRIC: EC50 (µg/mL)
Numeric only. Scale: µg/mL

Here's what some known entries look like.
INSERT INTO assay_data (binder, quantitative_result) VALUES
  ('114-7.19.12 (antibody, V domains shown, Murine monoclonal antibody purified from hybridoma supernatant) VH: QVQLQQSGAELASPGASVKLSCKASGYTFTTYWLQWVKQRPGQGLEWIGAIYPGPGNTKYTQKFKDKATLTADKSASTAYMQLNSLTSEDSAVYYCARRGSRRGIAYWGQGTLVTVSA VL: NIVLTQSPASLAVSLGQRATISCRASESVDSYGRSFMHWYQQRPGQPPTLLIYLASNLESGVPVRFSGSGSRTDFTLTIDPVEADDAATYYCQQDNEDPYTFGGGTKLEIK', 0.0129),
  ('114-2.222 (antibody, V domains shown, Murine monoclonal antibody from hybridoma) VH: EVQLQQSGAELVKPGASVKLSCTTSGFNIKATYIHWVQQRPEQGLEWIGRIDPANGNTKYDSKFQGKATITADTSSNTAYLQLSSLTSEDTAVYFCARSLHYYVFFDYWGQGTTLTVSS VL: DIQMTQTTSSLSASLGDRVTISCSASQGISNYLNWYQQKPDGTVKLLIYSTSSLHSGVPSRFSGSGSGTDYSLTISSLEPEDIATYYCQQYSKLPLTFGAGTKLELKR', 0.0153);

Next item in the queue.
Sample 114-6.6.29 (antibody, V domains shown, Murine monoclonal antibody from hybridoma) VH: DVKLVESGGGLVKPGGSLKLSCAASGFTFSSYTMSWVRQTPEKRLEWVATISSGGSYTYYPDSVKGRFTISRDNAKNTLYLQMSSLKSEDTAMYYCTRDWDYYGTTYVGGYAMDYWGQGTSVTVSS VL: DVLMTQTPLSLPVSLGDQASISCRSSQSIVHSNGNTYLEWYLQKPGQSPKLLIYKVSNRFSGVPDRFSGSGSGTDFTLKISRVEAEDLGVYYCFQGSHVPWTFGGGTKLEIK — what was its EC50?
0.0104
